Where these numbers come from: patent US10550143B2

# assay_method_text: Pharmacokinetics in rats after intragastric and intravenous administration
# Type: in vivo, rat
# run_conditions: rat, plasma, po, gavage 10 mg/kg
metric: AUC(0-t) (ng·h/mL)
# number only, unit ng·h/mL dropped from output

[ask] Using the record for CCc1ccc(Cc2cc3c(cc2Cl)CO[C@]32O[C@H](C)[C@@H](O)[C@H](O)[C@H]2O)s1 , state its measured AUC(0-t).
[reply] 1350

====

# target_or_system: human sodium-glucose cotransporter 2 (SGLT2) (Homo sapiens, UniProt P31639)
# Construct: expressed in transfected cells; host or cells: NIH3T3 (mouse fibroblast) cells expressing hSGLT2
# assay_method_text: In vitro SGLT2 inhibition, methyl-α-D-[U-14C]glucopyranoside uptake in NIH3T3-hSGLT2 cells
# Type: cell-based
# run_conditions: SGLT2, 100 nM; read-out: % Inhibition rate ± SD 100 nM
# Procedure: Inhibition of the compounds of formula I against human sodium-glucose cotransporter 2 (SGLT2) was determined experimentally and the experimental procedures were carried out as reference^1. […] SGLT2 transports D-glucose at 1:1 sodium-glucose ratio, glucose is replaced by the non-metabolic and isotope labeled methyl-aD-[U-^14C] glucopyranoside and methyl-aD-glucopyranoside, and the amount of isotope transferred into the cells was determined. […] IC50 is calculated as follows: […]
Each record here notes measured inhibition at 0.1 µM.
The response must be a number in % with no trailing unit.

{"compound": "C[C@H]1O[C@]2(OCc3cc(Cl)c(Cc4ccc(C5(C#N)CC5)s4)cc32)[C@H](O)[C@@H](O)[C@@H]1O [Example A109]", "target_or_system": "human sodium-glucose cotransporter 2 (SGLT2) (Homo sapiens, UniProt P31639)", "units_of_measure": "%", "inhibition at 0.1 µM": 62.6}
{"compound": "COc1ccc(Cc2ccc3c(c2)[C@]2(OC3)O[C@H](C)[C@@H](O)[C@H](O)[C@H]2O)cc1 [Example A5]", "target_or_system": "human sodium-glucose cotransporter 2 (SGLT2) (Homo sapiens, UniProt P31639)", "units_of_measure": "%", "inhibition at 0.1 µM": 28.9}
{"compound": "CCc1ccc(Cc2ccc3c(c2)[C@]2(OC3)O[C@H](C)[C@@H](O)[C@H](O)[C@H]2O)s1 [Example A8]", "target_or_system": "human sodium-glucose cotransporter 2 (SGLT2) (Homo sapiens, UniProt P31639)", "units_of_measure": "%", "inhibition at 0.1 µM": 59.1}

As a next step, examine the compound that follows.
[ask] Indicate its recorded inhibition at 0.1 µM; the compound in question is C#Cc1cc2c(cc1Cc1ccc(CC)s1)[C@]1(OC2)O[C@H](C)[C@@H](O)[C@H](O)[C@H]1O [Example A85]
[reply] 50.4

====

# assay_method_text: Pharmacokinetics in rats after intragastric and intravenous administration
# Assay type: in vivo, rat
# run_conditions: rat, plasma, iv, vein 2 mg/kg
metric: AUC(0-inf) (µg·h/mL)
Respond with the bare value in µg·h/mL.

[ask] For the molecule CCc1ccc(Cc2cc3c(cc2Cl)CO[C@]32O[C@H](C)[C@@H](O)[C@H](O)[C@H]2O)s1 , report AUC(0-inf).
[reply] 0.252

====

# target_or_system: human sodium-glucose cotransporter 2 (SGLT2) (Homo sapiens, UniProt P31639)
# Construct: expressed in transfected cells; host or cells: NIH3T3 (mouse fibroblast) cells expressing hSGLT2
# Sequence (P31639 1-672): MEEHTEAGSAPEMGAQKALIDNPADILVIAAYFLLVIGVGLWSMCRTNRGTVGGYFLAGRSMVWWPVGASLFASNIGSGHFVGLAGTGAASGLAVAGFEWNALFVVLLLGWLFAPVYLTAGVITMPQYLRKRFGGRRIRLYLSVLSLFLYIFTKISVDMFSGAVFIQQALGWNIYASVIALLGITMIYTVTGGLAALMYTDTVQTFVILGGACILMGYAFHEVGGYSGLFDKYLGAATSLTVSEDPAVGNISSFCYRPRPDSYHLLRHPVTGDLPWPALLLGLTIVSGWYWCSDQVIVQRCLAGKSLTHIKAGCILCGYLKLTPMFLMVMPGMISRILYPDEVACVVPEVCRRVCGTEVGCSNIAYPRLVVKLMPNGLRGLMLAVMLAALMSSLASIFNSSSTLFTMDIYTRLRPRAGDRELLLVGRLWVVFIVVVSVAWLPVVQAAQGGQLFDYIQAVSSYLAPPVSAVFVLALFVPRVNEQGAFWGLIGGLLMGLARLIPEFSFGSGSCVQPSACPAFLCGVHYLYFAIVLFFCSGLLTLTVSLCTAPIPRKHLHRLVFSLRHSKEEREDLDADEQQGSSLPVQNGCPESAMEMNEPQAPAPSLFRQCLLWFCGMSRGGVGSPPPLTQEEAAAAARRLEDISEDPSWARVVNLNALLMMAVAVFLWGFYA
# assay_method_text: In vitro SGLT2 inhibition, methyl-α-D-[U-14C]glucopyranoside uptake in NIH3T3-hSGLT2 cells
# Type: cell-based
# run_conditions: SGLT2, 100 nM; read-out: % Inhibition rate ± SD 100 nM
Think of 50% as a floor: if inhibition at 0.1 µM stands on it or above, it is MET; beneath it, NOT MET.

These solved cases illustrate the format of a correct answer.
{"compound": "Cc1ccc(Cc2ccc3c(c2)[C@]2(OC3)O[C@H](C)[C@@H](O)[C@H](O)[C@H]2O)s1", "label_value": "NOT MET"}
{"compound": "CCOc1ccc(Cc2cc([C@@H]3O[C@H](CO)[C@@H](O)[C@H](O)[C@H]3O)ccc2Cl)cc1 [dapagliflozin, reference compound]", "label_value": "MET"}
{"compound": "CC(O)c1ccc(Cc2cc3c(cc2Cl)CO[C@]32O[C@H](C)[C@@H](O)[C@H](O)[C@H]2O)s1 (some centres unmarked)", "label_value": "MET"}

[ask] State whether the measured inhibition at 0.1 µM reaches 50%, counting equality as reaching it, for CC(C)c1ccc(Cc2ccc3c(c2)[C@]2(OC3)O[C@H](C)[C@@H](O)[C@H](O)[C@H]2O)cc1
[reply] NOT MET

[ask] Tell me whether inhibition at 0.1 µM is at least 50% here: C[C@H]1O[C@]2(OCc3cc(Cl)c(Cc4cc5ccccc5s4)cc32)[C@H](O)[C@@H](O)[C@@H]1O
[reply] MET

[ask] Evaluate CCc1ccc(Cc2cc3c(cc2F)CO[C@]32O[C@H](C)[C@@H](O)[C@H](O)[C@H]2O)s1 : inhibition at 0.1 µM at minimum 50%?
[reply] MET

[ask] Form field: inhibition at 0.1 µM at least 50%? Entry: CCOCCc1ccc(Cc2cc3c(cc2Cl)CO[C@]32O[C@H](C)[C@@H](O)[C@H](O)[C@H]2O)s1
[reply] MET

[ask] Determine whether measured inhibition at 0.1 µM meets or exceeds 50% for C[C@H]1O[C@]2(OCc3cc(Cl)c(Cc4ccc(CCO)s4)cc32)[C@H](O)[C@@H](O)[C@@H]1O
[reply] MET

[ask] Does inhibition at 0.1 µM meet or surpass 50% for CCc1ccc(Cc2cc3c(cc2C)CO[C@]32O[C@H](C)[C@@H](O)[C@H](O)[C@H]2O)s1 ?
[reply] MET

====

# target_or_system: human sodium-glucose cotransporter 2 (SGLT2) (Homo sapiens, UniProt P31639)
# Construct: expressed in transfected cells; host or cells: NIH3T3 (mouse fibroblast) cells expressing hSGLT2
# assay_method_text: In vitro SGLT2 inhibition, methyl-α-D-[U-14C]glucopyranoside uptake in NIH3T3-hSGLT2 cells
# Assay type: cell-based
# run_conditions: IC50 SGLT1/IC50 SGLT2
Answer Criterion not met if Selectivity is under 1000, and Criterion met if it is 1000 or more.

{"compound": "C[C@H]1O[C@]2(OCc3cc(Cl)c(Cc4cc5ccccc5s4)cc32)[C@H](O)[C@@H](O)[C@@H]1O [Example A35]", "label_value": "Criterion not met"}
{"compound": "C[C@H]1O[C@]2(OCc3cc(Cl)c(Cc4ccc(CCO)s4)cc32)[C@H](O)[C@@H](O)[C@@H]1O [Example A119]", "label_value": "Criterion not met"}
{"compound": "C[C@H]1O[C@]2(OCc3cc(Cl)c(Cc4ccc(-c5ccc(F)cc5)s4)cc32)[C@H](O)[C@@H](O)[C@@H]1O [Example A31]", "label_value": "Criterion met"}

[ask] Tell me whether Selectivity is at least 1000 here: CCOc1ccc(Cc2cc3c(cc2Cl)CO[C@]32O[C@H](C)[C@@H](O)[C@H](O)[C@H]2O)cc1 [Example A26]
[reply] Criterion not met

[ask] Confirm if Selectivity reported for the compound CCc1ccc(Cc2cc3c(cc2Cl)CO[C@]32O[C@H](C)[C@@H](O)[C@H](O)[C@H]2O)s1 [Example A28] is 1000 or above.
[reply] Criterion met

[ask] Has C[C@H]1O[C@]2(OCc3cc(Cl)c(Cc4cc5ccccc5o4)cc32)[C@H](O)[C@@H](O)[C@@H]1O [Example A36] a recorded Selectivity greater than or equal to 1000?
[reply] Criterion not met
